target: UniProtKB P61073; experiment: Antagonist activity at CXCR4 in human CD4-positive T cells assessed as inhibition of CXCL12-induced calcium signal incubated for 20 mins by FLIPR assay; format: functional, cell-based, CD4+ve Th
pIC50: −log10 of the molar value.
assayMetric: pIC50

structureSmilesString	experimentalSystem	measuredNumber
Cc1nc(CN(C)[C@H]2CCCc3cccnc32)cc(N2CCN(C)CC2)n1	UniProtKB P61073	10.70

###

target: C-X-C chemokine receptor type 4 (Homo sapiens, UniProt P61073); experiment: Antagonist activity at CXCR4 in human HPBALL cells assessed as inhibition of APC-conjugate clone 12G5 antibody signal incubated for 3 hrs by flow cytometric analysis; type: cell-based
Sequence (P61073 whole entry): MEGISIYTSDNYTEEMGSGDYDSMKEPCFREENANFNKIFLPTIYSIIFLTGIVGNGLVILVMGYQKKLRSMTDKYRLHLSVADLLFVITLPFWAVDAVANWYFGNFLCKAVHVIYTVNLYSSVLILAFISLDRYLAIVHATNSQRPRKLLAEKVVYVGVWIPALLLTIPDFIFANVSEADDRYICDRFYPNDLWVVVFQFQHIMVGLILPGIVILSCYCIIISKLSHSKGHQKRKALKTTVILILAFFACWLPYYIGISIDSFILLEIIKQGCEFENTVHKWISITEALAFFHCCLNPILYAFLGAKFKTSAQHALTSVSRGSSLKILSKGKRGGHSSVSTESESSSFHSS
pIC50: −log10 of the molar value.

compound	experimentalSystem	comparativeSign	pIC50
CN1CCN(c2cc(CN(C)C3CCCc4cccnc43)nc(N(C)C)n2)CC1 (racemic)	C-X-C chemokine receptor type 4 (Homo sapiens, UniProt P61073)	<	5.00
CCOc1nc(CN(C)C2CCCc3cccnc32)cc(N2CCN(C)CC2)n1 (racemic)	C-X-C chemokine receptor type 4 (Homo sapiens, UniProt P61073)	=	7.11
Cc1nc(CN(C)[C@H]2CCCc3cccnc32)cc(N2C[C@@H](C)N(C)[C@@H](C)C2)n1	C-X-C chemokine receptor type 4 (Homo sapiens, UniProt P61073)	=	8.08
Cc1nc(CN(C)[C@H]2CCCc3cccnc32)cc(NCCCN2CCOCC2)n1	C-X-C chemokine receptor type 4 (Homo sapiens, UniProt P61073)	=	7.44
CC(C)Oc1nc(CN(C)C2CCCc3cccnc32)cc(N2CCN(C)CC2)n1 (racemic)	C-X-C chemokine receptor type 4 (Homo sapiens, UniProt P61073)	=	6.82
